assayed-target: CAAX prenyl protease 2 (Saccharomyces cerevisiae S288c, UniProt Q03530)
Sequence (Q03530 whole entry): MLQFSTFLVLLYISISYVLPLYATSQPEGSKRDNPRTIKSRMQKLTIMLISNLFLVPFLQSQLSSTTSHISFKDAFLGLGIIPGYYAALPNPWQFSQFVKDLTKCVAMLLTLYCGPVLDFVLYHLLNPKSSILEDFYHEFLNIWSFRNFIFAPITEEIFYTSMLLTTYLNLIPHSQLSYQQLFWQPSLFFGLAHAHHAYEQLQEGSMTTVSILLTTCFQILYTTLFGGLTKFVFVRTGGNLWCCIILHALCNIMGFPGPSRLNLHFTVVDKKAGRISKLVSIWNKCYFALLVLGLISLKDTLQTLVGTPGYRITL
Assay type: biochemical
Active and inactive are the calls of the source.
The following compounds are shown together with reported AC50 values.
endpoint-label: AC50

[
  {
    "compound": "CCCC(=O)N1CCN(c2ccc(NC(=O)c3cc4ccccc4o3)cc2Cl)CC1",
    "observed": "11.5 µM (active)"
  },
  {
    "compound": "NC(=O)c1nsc(C(=O)N(c2ccccc2F)C(C(=O)NCc2ccccc2)c2ccc(O)cc2)c1N (stereo not given)",
    "observed": "13.8 µM (active)"
  },
  {
    "compound": "Nc1c(C(=O)Nc2cccc(C(=O)O)c2)sc2nc3c(cc12)CCCC3",
    "observed": "47.8 µM (active)"
  },
  {
    "compound": "Cc1ccc(OCCN2C(=O)C(=O)c3cc(C)ccc32)cc1",
    "observed": "1.6 µM (active)"
  },
  {
    "compound": "CCOc1ccc(-c2c(C(=O)N/N=C/c3cccs3)nnn2-c2nonc2N)cc1",
    "observed": "5.5 µM (active)"
  }
]

----------
assayed-target: Cytochrome P450 3A4 (Homo sapiens);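 also: CYP3A4 tested as one member of a cytochrome P450 panel screen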
Sequence (P08684 whole entry): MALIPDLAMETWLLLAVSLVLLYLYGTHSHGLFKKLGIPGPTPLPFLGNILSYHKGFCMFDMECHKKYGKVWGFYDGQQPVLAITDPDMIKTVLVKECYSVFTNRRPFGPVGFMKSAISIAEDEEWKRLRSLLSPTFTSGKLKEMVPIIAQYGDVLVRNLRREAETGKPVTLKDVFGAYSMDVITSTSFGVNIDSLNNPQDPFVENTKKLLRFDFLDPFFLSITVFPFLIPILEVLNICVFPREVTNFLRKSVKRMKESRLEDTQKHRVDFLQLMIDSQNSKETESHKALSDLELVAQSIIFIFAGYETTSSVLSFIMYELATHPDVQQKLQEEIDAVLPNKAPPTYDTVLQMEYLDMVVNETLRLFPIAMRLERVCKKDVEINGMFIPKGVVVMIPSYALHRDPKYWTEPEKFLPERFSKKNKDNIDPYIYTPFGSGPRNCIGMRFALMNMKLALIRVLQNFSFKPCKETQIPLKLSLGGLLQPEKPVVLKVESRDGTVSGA
Square brackets hold non-standard residues; d marks the D form. Peptide text beside a SMILES is read from it. * marks the point of attachment. ξ: configuration not given here. Cbz = O=C(OCc1ccccc1)*; OBn = c1ccc(CO*)cc1; ξP = O=C(O)C1CCCN1

[
  {
    "molecule": "O=C(N/N=C1/C[C@@H](O)[C@@H](O)[C@@H]2[C@H]3C(=O)N(c4ccc(F)cc4F)C(=O)[C@@H]3CC[C@@H]12)OCc1ccccc1",
    "assayed-target": "Cytochrome P450 3A4 (Homo sapiens)",
    "AC50": "3.98 µM (inconclusive)"
  },
  {
    "molecule": "Cc1ccc(S(=O)(=O)N[C@H](C(=O)Oc2ccc3c(C(F)(F)F)cc(=O)oc3c2)c2ccccc2)cc1",
    "assayed-target": "Cytochrome P450 3A4 (Homo sapiens)",
    "AC50": "25.1 µM (inconclusive)"
  },
  {
    "molecule": "Cc1nnc2ccc(-c3cccc(C(F)(F)F)c3)nn12",
    "assayed-target": "Cytochrome P450 3A4 (Homo sapiens)",
    "AC50": "31.6 µM (inconclusive)"
  },
  {
    "molecule": "Cc1cc(C)n(-c2cc(N3CCN(C(=O)c4ccc(C(C)(C)C)cc4)CC3)ccc2[N+](=O)[O-])n1",
    "assayed-target": "Cytochrome P450 3A4 (Homo sapiens)",
    "AC50": "35.5 µM (inconclusive)"
  },
  {
    "molecule": "c1nc(NCCN2CCOCC2)c2cc(-c3ccoc3)ccc2n1",
    "assayed-target": "Cytochrome P450 3A4 (Homo sapiens)",
    "AC50": "15.8 µM (inconclusive)"
  },
  {
    "molecule": "C=C1[C@@H](O)C2C=CC[C@H](C)C(=O)[C@@](C)(O)C=C[C@@H](OC(C)=O)[C@@]23C(=O)N[C@H](Cc2ccccc2)[C@@H]3[C@@H]1C (stereo not given in full)",
    "assayed-target": "Cytochrome P450 3A4 (Homo sapiens)",
    "AC50": "15.8 µM (inconclusive)"
  },
  {
    "molecule": "O=c1c2ccccc2nc(SCc2ccccc2Cl)n1Cc1ccccc1",
    "assayed-target": "Cytochrome P450 3A4 (Homo sapiens)",
    "AC50": "15.8 µM (inconclusive)"
  },
  {
    "molecule": "CS(=O)(=O)N(CC(=O)Nc1cccc(F)c1)c1cccc([N+](=O)[O-])c1",
    "assayed-target": "Cytochrome P450 3A4 (Homo sapiens)",
    "AC50": "17.8 µM (inconclusive)"
  },
  {
    "molecule": "COC[C@H]1OC(=O)c2coc3c2[C@@]1(C)C1=C(C3=O)[C@H]2CCC(=O)[C@@]2(C)C[C@H]1OC(C)=O",
    "assayed-target": "Cytochrome P450 3A4 (Homo sapiens)",
    "AC50": "7.94 µM (inconclusive)"
  },
  {
    "molecule": "O=c1cc(-c2ccccc2)oc2cc(O)cc(O)c12",
    "assayed-target": "Cytochrome P450 3A4 (Homo sapiens)",
    "AC50": "3.16 µM (inconclusive)"
  },
  {
    "molecule": "CO[C@@H]1COC(=O)C/C=C\\[C@H](C)COC(=O)[C@H](Cc2ccccc2)NC(=O)C/C=C\\[C@H]1C",
    "assayed-target": "Cytochrome P450 3A4 (Homo sapiens)",
    "AC50": "6.31 µM (inconclusive)"
  },
  {
    "molecule": "CC/C=C\\CC[C@H](OC(=O)c1ccc(Br)cc1)C1=CCCCC1=O",
    "assayed-target": "Cytochrome P450 3A4 (Homo sapiens)",
    "AC50": "3.98 µM (inconclusive)"
  },
  {
    "molecule": "Cc1nc2cnc(N(C)C)nc2n(C)c1=O",
    "assayed-target": "Cytochrome P450 3A4 (Homo sapiens)",
    "AC50": "15.8 µM (inconclusive)"
  },
  {
    "molecule": "Cc1nc2cnc(Oc3ccccc3)nc2n(CCc2ccccc2)c1=O",
    "assayed-target": "Cytochrome P450 3A4 (Homo sapiens)",
    "AC50": "20 µM (inconclusive)"
  },
  {
    "molecule": "c1ccc(N2CCCC3(CCNCC3)C2)cc1",
    "assayed-target": "Cytochrome P450 3A4 (Homo sapiens)",
    "AC50": "25.1 µM (inconclusive)"
  },
  {
    "molecule": "CCOC(=O)c1cc(CC)sc1NC(=O)C(c1ccccc1)c1ccccc1",
    "assayed-target": "Cytochrome P450 3A4 (Homo sapiens)",
    "AC50": "11.2 µM (inconclusive)"
  },
  {
    "molecule": "O=C(CNC(=O)OCc1ccccc1)NCC(=O)N1CCCC1C(=O)OCc1ccccc1 (stereo not drawn) (Cbz-Gly-Gly-[ξP]-OBn)",
    "assayed-target": "Cytochrome P450 3A4 (Homo sapiens)",
    "AC50": "17.8 µM (inconclusive)"
  },
  {
    "molecule": "CCOC(=O)CSc1nnc(NC(=O)c2ccccc2)[nH]1",
    "assayed-target": "Cytochrome P450 3A4 (Homo sapiens)",
    "AC50": "39.8 µM (inconclusive)"
  },
  {
    "molecule": "Cc1ccc(CSc2nnc([C@@H]3CCCN3)o2)cc1",
    "assayed-target": "Cytochrome P450 3A4 (Homo sapiens)",
    "AC50": "3.55 µM (inconclusive)"
  },
  {
    "molecule": "COCCn1c(=O)c(-c2ccccc2)nc2cnc(Oc3cccc(Cl)c3)nc21",
    "assayed-target": "Cytochrome P450 3A4 (Homo sapiens)",
    "AC50": "20 µM (inconclusive)"
  }
]
